Assay: Plasma pharmacokinetics of ATX-101 on first infusion day, non-compartmental (Phoenix WinNonlin)
Conditions: human, plasma, iv, 30 mg/m2
Ends that are not written are not given here.
Metric Name: AUC0-t (ng·h/mL)
Your answer is read as ng·h/mL, so omit the unit and give the number.

Need AUC0-t of Ac-MDRWLVKWKKKRKIRRRRRRRRRRR (N-terminus assumed) [ATX-101] , thanks. 1900

====

Experiment: Plasma pharmacokinetics of ATX-101 on first infusion day, non-compartmental (Phoenix WinNonlin)
Details: human, plasma, iv, 30 mg/m2
Ends that are not written are not given here.
Metric Name: Cmax (ng/mL)
Supply the numeric figure in ng/mL, leaving out any unit text.

Query (substance): Ac-MDRWLVKWKKKRKIRRRRRRRRRRR (N-terminus assumed) [ATX-101] ; field requested: Cmax 720

Cited source for all entries: paper PMC9918429
